- study-target: D-amino acid oxidase (DAAO) (Mus musculus)
- Sequence (P18894 whole entry): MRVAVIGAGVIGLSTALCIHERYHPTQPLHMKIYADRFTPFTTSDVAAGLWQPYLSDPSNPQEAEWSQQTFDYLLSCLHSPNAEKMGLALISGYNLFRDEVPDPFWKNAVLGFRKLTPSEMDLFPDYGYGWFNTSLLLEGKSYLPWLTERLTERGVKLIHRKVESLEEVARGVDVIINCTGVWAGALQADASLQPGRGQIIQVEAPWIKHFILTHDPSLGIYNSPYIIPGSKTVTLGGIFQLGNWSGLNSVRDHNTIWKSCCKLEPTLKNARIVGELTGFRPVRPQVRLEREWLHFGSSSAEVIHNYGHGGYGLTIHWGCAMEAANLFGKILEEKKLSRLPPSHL
observation-type: IC50 (nM)
# unit: nM | format: bare number

[in] Would you kindly share the measured IC50 for O=c1[nH]nc(CCc2ccc(C(F)(F)F)cc2)cc1O [luvadaxistat] ?
[out] 5.1
